Sourced from patent US20090291081A1

Molecular target: T1, human IL-1α (human, UniProt P01583 113-271)
T1 construct: also called IL-1alpha; hIL-1α
T1 sequence (looked up): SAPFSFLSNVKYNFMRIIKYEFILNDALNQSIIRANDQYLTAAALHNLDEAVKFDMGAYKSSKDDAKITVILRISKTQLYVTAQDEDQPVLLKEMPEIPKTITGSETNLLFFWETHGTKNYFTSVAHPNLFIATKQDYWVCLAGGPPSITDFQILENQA
Test: Table 62 IC50; RBA presumed
pIC50: −log10 of the molar value.
Values of pIC50 greater than or equal to 9 map to rule met; values below map to rule not met.

Answered cases to consult:
ABT1-141-79 (other, VK dAb) VL: DIQMTQSPSSLSASVGDRVTITCRANQWIQKQLAWYQQKPGKAPKLLIFSSSHLQSGVPSRFSGSGSGTDFTLTISSLQPEDFATYYCQQHLRVPMTFGQGTKVEIKR; rule not met
ABT1-95-21 (other, VK dAb) VL: DIQMTQSPSSLSASVGDRVTITCRASQPIVRNLRWYQQKPGKAPKLLIYSSSYLEPGVPSRFSGSGSGTDFTLTISSLQPEDFATYYCQQGYRWPVTFGQGTKVEIKR; rule met
ABT1-163 (other, VK dAb) VL: DIQMTQSPSSLSASVGDRVTITCRASGNIVHNLRWYQQKPGKAPKLLIYAASRLQSGVPSRFSGSGSGTDFTLTISSLQPEDFATYYCAQGYEWPLTFGQGTKVEIKQ; rule not met
ABT1-95-158 (other, VK dAb) VL: DIQMTQSPSSLSASVGDRVTITCRASQPIVRNLRWYQQKPGKAPKLLIFSSSYLEPGVPSRFSGSGSGTDFTLTISSLQPEDFATYHCQQGYRWPVTFGQGTKVEIKR; rule met
ABT1-95-85 (other, VK dAb) VL: DIQMTQSPSSLSASVGDRVTITCRAGQPIVRNLRWYQQKPGKAPKLLIYSGSYLEPGVPSRFSGSGSGTDFTLTISSLQPEDFATYHCLQGYRWPVTFGQGTKVEIKR; rule met

Now take the following binder into account.
**Query** Tell me whether pIC50 is at least 9 here: ABT1-141-46 (other, VK dAb) VL: DIQMTQSPSSLSASVGDRVTITCRASQWIQKQLAWYQQKPGKAPKLLIYSSSHLQSGVPSRFSGSGSGTDFTLTISSLQPEDFATYYCQQHLRVPMTFGQGTKVVIKR
**Result** rule not met
